These measurements were taken from paper PMC5540273.

%Inh by entry:
Test system: ERN1;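 further: KINOMEscan kinase panel screen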
run_conditions: concentration: 1 μM, replicates: in singlicate; n = 1
measured_attribute: %Inh (%)

# smiles_notation, measurement_target, value_observed
data = [
    ("CC(=O)N1CCN(c2ccc(Nc3nccc(-c4sc(C(C)C)nc4-c4cccc(NS(=O)(=O)c5cccc(Cl)c5)c4)n3)cn2)CC1", "ERN1", 44),
    ("c1ccc(-c2cnc3nccnn23)cc1", "ERN1", 0),
    ("COc1ccc(Nc2nccc(NCCNC(=O)c3cc4ccccc4s3)n2)cc1", "ERN1", 0),
    ("COc1cccc(-c2ccc3c(NC(=O)C4CC4)n[nH]c3n2)c1", "ERN1", 0),
    ("c1ccc(-c2n[nH]cc2Nc2ccnc3ccccc23)nc1", "ERN1", 22),
    ("CN(c1ccc(NC(=O)Nc2cc(C(F)(F)F)ccc2F)cc1)c1ccnc(Nc2ccc(S(N)(=O)=O)cc2)n1", "ERN1", 5),
    ("Cn1cc(-c2ccc3c(c2)CCN3C(=O)Cc2cccc(F)c2)c2c(N)ncnc21", "ERN1", 3),
    ("O=C(Nc1n[nH]c2cc(-c3ccoc3)ccc12)C1CC1", "ERN1", 0),
]
